species on record: Macaca mulatta; test: Plasma clearance in rhesus monkey; details: read-out: Clp
PROPERTY_NAME: clearance

Q: Which measured clearance value corresponds to CC(C)[C@H](C(=O)O)N1C[C@H](CN2CCC(c3ccc(F)cc3)CC2)[C@@H](c2ccccc2)C1 ?
Ans: 14.6 mL/min/kg

###

experiment: Volume of distribution in steady state was determined in rat; type: ADME, organism-based; conditions: in vivo, read-out: Vdss
PROPERTY_NAME: Vd (L/kg)
Field format: number, assumed L/kg, no unit text.

A selection of reference data follows.
sample_smiles=O=C(O)[C@@H](C1CCCCC1)N1C[C@H](CN2CCC(CCCc3ccccc3)CC2)[C@@H](c2ccccc2)C1 property_name=Vd units=L/kg value=3.3
sample_smiles=O=C(O)[C@@H](C1CCCCC1)N1C[C@H](CN2CCC(O)(CCCc3ccccc3)CC2)[C@@H](c2ccccc2)C1 property_name=Vd units=L/kg value=15
sample_smiles=CC(C)[C@H](C(=O)O)N1C[C@H](CN2CCC(c3ccc(F)cc3)CC2)[C@@H](c2ccccc2)C1 property_name=Vd units=L/kg value=8.4

Could you now look at the following compound, please?
Q: Which measured Vd value corresponds to O=C(O)[C@@H](CC1CCC1)N1C[C@H](CN2CCC(CCCc3ccccc3)CC2)[C@@H](c2ccccc2)C1 ?
Ans: 5.9

###

assay: Bioavailability in Rhesus monkey; type: ADME, organism-based, Macaca mulatta; conditions: in vivo
Reported bioavailability values follow for various molecules
Field format: number, assumed %, no unit text.

sample_smiles=O=C(O)[C@@H](C1CCCCC1)N1C[C@H](CN2CCC(CCCc3ccccc3)CC2)[C@@H](c2ccccc2)C1 property_name=bioavailability units=% value=10

Could you now look at the following molecule, please?
Q: Which measured bioavailability value corresponds to CC(C)[C@H](C(=O)O)N1C[C@H](CN2CCC(c3ccc(F)cc3)CC2)[C@@H](c2ccccc2)C1 ?
Ans: 84

###

test: Half-life in rat; format: ADME, organism-based; details: in vivo
Reported half-life values follow for various compounds
Field format: number, assumed h, no unit text.

Q: Which measured half-life value corresponds to CC(C)[C@H](C(=O)O)N1C[C@H](CN2CCC(c3ccc(F)cc3)CC2)[C@@H](c2ccccc2)C1 ?
Ans: 1.9

Q: Input OC1(CCCc2ccc(-c3nnn[nH]3)cc2)CCN(C[C@H]2CN(CC3CCCCC3)C[C@@H]2c2ccccc2)CC1
Ans: 0.3

Q: Input O=C(O)[C@@H](C1CCCCC1)N1C[C@H](CN2CCC(O)(CCCc3ccccc3)CC2)[C@@H](c2ccccc2)C1
Ans: 1.8

Q: Input O=C(O)[C@@H](CC1CCC1)N1C[C@H](CN2CCC(CCCc3ccccc3)CC2)[C@@H](c2ccccc2)C1
Ans: 3

Q: Input O=C(O)[C@@H](C1CCCCC1)N1C[C@H](CN2CCC(CCCc3ccccc3)CC2)[C@@H](c2ccccc2)C1
Ans: 2.1

###

Reported log10 IC50 values follow for various molecules
molecular target: C-C chemokine receptor type 5 (Homo sapiens, UniProt P51681)
Sequence (P51681 whole entry): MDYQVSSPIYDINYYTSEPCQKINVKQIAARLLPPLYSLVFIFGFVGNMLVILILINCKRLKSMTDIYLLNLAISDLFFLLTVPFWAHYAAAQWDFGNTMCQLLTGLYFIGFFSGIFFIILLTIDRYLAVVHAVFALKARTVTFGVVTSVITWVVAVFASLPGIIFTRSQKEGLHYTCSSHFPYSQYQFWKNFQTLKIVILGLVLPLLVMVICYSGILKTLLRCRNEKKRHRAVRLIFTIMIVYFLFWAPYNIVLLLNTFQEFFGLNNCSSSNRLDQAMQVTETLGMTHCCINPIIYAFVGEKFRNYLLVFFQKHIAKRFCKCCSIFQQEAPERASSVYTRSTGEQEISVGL
# values: log10(IC50), units nM

sample_smiles=O=C(O)[C@@H](c1ccccc1)N1C[C@H](CN2CCC(O)(CCCc3ccccc3)CC2)[C@@H](c2ccccc2)C1 experimental_target="C-C chemokine receptor type 5 (Homo sapiens, UniProt P51681)" property_name="log10 IC50" value=-0.10
sample_smiles=COC(=O)[C@@H](C1CCCCC1)N1C[C@H](CN2CCC(O)(CCCc3ccccc3)CC2)[C@@H](c2ccccc2)C1 experimental_target="C-C chemokine receptor type 5 (Homo sapiens, UniProt P51681)" property_name="log10 IC50" value=0.00
sample_smiles=O=C(O)[C@@H](C1CCC1)N1C[C@H](CN2CCC(CCCc3ccccc3)CC2)[C@@H](c2ccccc2)C1 experimental_target="C-C chemokine receptor type 5 (Homo sapiens, UniProt P51681)" property_name="log10 IC50" value=-1.00
sample_smiles=O=C(OCc1ccccc1)[C@@H](C1CCCCC1)N1C[C@H](CN2CCC(O)(CCCc3ccccc3)CC2)[C@@H](c2ccccc2)C1 experimental_target="C-C chemokine receptor type 5 (Homo sapiens, UniProt P51681)" property_name="log10 IC50" value=0.56
sample_smiles=O=C(O)[C@@H](C1CCCC1)N1C[C@H](CN2CCC(CCCc3ccccc3)CC2)[C@@H](c2ccccc2)C1 experimental_target="C-C chemokine receptor type 5 (Homo sapiens, UniProt P51681)" property_name="log10 IC50" value=-0.70

Q: Which measured log10 IC50 value corresponds to CC(C)[C@H](C(=O)O)N1C[C@H](CN2CCC(O)(CCCc3ccccc3)CC2)[C@@H](c2ccccc2)C1 ?
Ans: 0.30

Q: Input OC[C@H](C1CCCCC1)N1C[C@H](CN2CCC(O)(CCCc3ccccc3)CC2)[C@@H](c2ccccc2)C1
Ans: 0.00

Q: Input O=C(O)[C@@H](C1CCCCC1)N1C[C@H](CN2CCC(O)(CCCc3ccccc3)CC2)[C@@H](c2ccccc2)C1
Ans: -0.30

###

system: Human immunodeficiency virus 1; experiment: In vitro inhibition of HIV-1 BAL strain infection of HeLa cell line.; type: functional; conditions: Human immunodeficiency virus 1, HeLa
Reported IC90 values follow for various compounds
Field format: number, assumed nM, no unit text.

Q: Which measured IC90 value corresponds to O=C(O)[C@@H](C1CCCCC1)N1C[C@H](CN2CCC(O)(CCCc3ccccc3)CC2)[C@@H](c2ccccc2)C1 ?
Ans: 11

Q: Input CC(C)[C@H](C(=O)O)N1C[C@H](CN2CCC(O)(CCCc3ccccc3)CC2)[C@@H](c2ccccc2)C1
Ans: 333

Q: Input O=C(O)[C@@H](CC1CC1)N1C[C@H](CN2CCC(CCCc3ccccc3)CC2)[C@@H](c2ccccc2)C1
Ans: 11

Q: Input O=C(O)[C@@H](c1ccccc1)N1C[C@H](CN2CCC(O)(CCCc3ccccc3)CC2)[C@@H](c2ccccc2)C1
Ans: 33

###

assay: Plasma clearance in dog; type: ADME, organism-based, Canis lupus familiaris; details: read-out: Clp
PROPERTY_NAME: clearance (mL/min/kg)
Field format: number, assumed mL/min/kg, no unit text.

sample_smiles=O=C(O)[C@@H](C1CCCCC1)N1C[C@H](CN2CCC(CCCc3ccccc3)CC2)[C@@H](c2ccccc2)C1 property_name=clearance value=10.9

Could you now look at the following compound, please?
Q: Which measured clearance value corresponds to CC(C)[C@H](C(=O)O)N1C[C@H](CN2CCC(c3ccc(F)cc3)CC2)[C@@H](c2ccccc2)C1 ?
Ans: 13.1

###

assay: Bioavailability in dog; type: ADME, organism-based, Canis lupus familiaris; conditions: in vivo
PROPERTY_NAME: bioavailability
Write your answer as a measured quantity: the number, then the unit.

sample_smiles=CC(C)[C@H](C(=O)O)N1C[C@H](CN2CCC(c3ccc(F)cc3)CC2)[C@@H](c2ccccc2)C1 value=34%

Could you now look at the following molecule, please?
Q: Which measured bioavailability value corresponds to O=C(O)[C@@H](C1CCCCC1)N1C[C@H](CN2CCC(CCCc3ccccc3)CC2)[C@@H](c2ccccc2)C1 ?
Ans: 43%

###

Reported IC50 values follow for various compounds
molecular target: Voltage-gated L-type calcium channel (Homo sapiens, UniProt Q13936+Q13698+Q01668+O60840); assay: Inhibition of L-type Ca+2 channels; type: protein assay
Field format: number, assumed µM, no unit text.

sample_smiles=O=C(O)[C@@H](C1CCCCC1)N1C[C@H](CN2CCC(CCCc3ccccc3)CC2)[C@@H](c2ccccc2)C1 property_name=IC50 value=5.3

Could you now look at the following compound, please?
Q: Give recorded IC50 with Voltage-gated L-type calcium channel (Homo sapiens, UniProt Q13936+Q13698+Q01668+O60840) for the following compound: O=C(O)[C@@H](CC1CCC1)N1C[C@H](CN2CCC(CCCc3ccccc3)CC2)[C@@H](c2ccccc2)C1
Ans: 2.7

###

test system: Human immunodeficiency virus 1; test: In vitro inhibition of HIV-1 BAL strain infection of HeLa cell line.; format: functional; settings: Human immunodeficiency virus 1, HeLa
Reported IC90 values follow for various compounds
Field format: number, assumed µM, no unit text.

sample_smiles=O=C(O)[C@@H](C1CCCC1)N1C[C@H](CN2CCC(CCCc3ccccc3)CC2)[C@@H](c2ccccc2)C1 value=0.011
sample_smiles=OC1(CCCc2ccc(-c3nnn[nH]3)cc2)CCN(C[C@H]2CN(CC3CCCCC3)C[C@@H]2c2ccccc2)CC1 value=0.004
sample_smiles=C[C@H](C(=O)O)N1C[C@H](CN2CCC(O)(CCCc3ccccc3)CC2)[C@@H](c2ccccc2)C1 value=0.333
sample_smiles=O=C(O)[C@@H](C1CCC1)N1C[C@H](CN2CCC(CCCc3ccccc3)CC2)[C@@H](c2ccccc2)C1 value=0.011
sample_smiles=O=C(O)[C@@H](C1CCCCC1)N1C[C@H](CN2CCC(CCCc3ccccc3)CC2)[C@@H](c2ccccc2)C1 value=0.011
sample_smiles=O=C(O)[C@@H](C1CCCCC1)N1C[C@H](CN2CCC(c3ccc(F)cc3)CC2)[C@@H](c2ccccc2)C1 value=0.0004
sample_smiles=O=C(O)CN1C[C@H](CN2CCC(O)(CCCc3ccccc3)CC2)[C@@H](c2ccccc2)C1 value=3
sample_smiles=O=C(O)[C@@H](C1CC1)N1C[C@H](CN2CCC(CCCc3ccccc3)CC2)[C@@H](c2ccccc2)C1 value=0.3

Q: Give recorded IC90 with Human immunodeficiency virus 1 for the following compound: OC[C@@H](C1CCCCC1)N1C[C@H](CN2CCC(O)(CCCc3ccccc3)CC2)[C@@H](c2ccccc2)C1
Ans: 0.3

Q: Input CC(C)[C@H](C(=O)O)N1C[C@H](CN2CCC(CCCc3ccccc3)CC2)[C@@H](c2ccccc2)C1
Ans: 0.111

Q: Input O=C(O)[C@@H](CC1CCC1)N1C[C@H](CN2CCC(CCCc3ccccc3)CC2)[C@@H](c2ccccc2)C1
Ans: 0.0012

Measured values drawn from ChEMBL document CHEMBL1134920 for this set.
